- testedTarget: ERα (Homo sapiens, UniProt P03372)
- test: Degradation of ERα in MCF-7 cells (immunoblotting, 4 h)
- Assay type: cell-based
- assaySetup: 10nM compound
measuredParameter: Degradation rate (%) of ERα in MCF-7 cells

Request: What measured Degradation rate (%) of ERα in MCF-7 cells goes with CN(CC(=O)N1CCC2(CC1)COc1c2ccc2c1C(=O)N(C1CCC(=O)NC1=O)C2=O)C1CCC2(CC1)CN(c1ccc([C@@H]3c4ccc(O)cc4CC[C@@H]3c3ccccc3)cc1)C2 (stereo partly drawn) [C19] ?
Result: 45

[I] C[C@@H]1C[C@H](N2CCC3(CC2)COc2c3ccc3c2CN(C2CCC(=O)NC2=O)C3=O)CCN1C(=O)C1CCN(c2ccc([C@@H]3c4ccc(O)cc4CC[C@@H]3c3ccccc3)cc2)CC1 (stereo partly drawn) [H28]
[II] O=C1CCC(N2Cc3c(ccc4c3OCC43CCN(C(=O)CC4CCN(c5ccc([C@@H]6c7ccc(O)cc7CC[C@@H]6c6ccccc6)cc5)CC4)CC3)C2=O)C(=O)N1 (stereo partly drawn) [A124]
Request: Hi there! Just curious which has the higher Degradation rate (%) of ERα in MCF-7 cells between I and II . Output the label that corresponds to your choice.
Result: I
(I: 65%, II: 20%)

---

- testedTarget: UniProt P03372
- test: Degradation of ERα in MCF-7 cells (immunoblotting, 4 h)
- Format: cell-based
- assaySetup: 10nM compound
measuredParameter: Degradation rate (%) of ERα in MCF-7 cells

Request: Reported Degradation rate (%) of ERα in MCF-7 cells for O=C1CCC(N2Cc3cc4c(cc3C2=O)CCC2(CN(C3CCC5(CC3)CN(c3ccc([C@@H]6c7ccc(O)cc7CC[C@@H]6c6ccccc6)cc3)C5)C2)O4)C(=O)N1 (stereo partly drawn) : what is it?
Result: 23

[I] O=C1CCC(N2Cc3c(ccc4c3OCC43CCN(C(=O)CN4CCN(c5ccc([C@@H]6c7ccc(O)cc7CC[C@@H]6c6ccccc6)cc5)CC4)CC3)C2=O)C(=O)N1 (stereo partly drawn)
[II] O=C1CCC(N2Cc3c(ccc4c3OCC43CCN(CC(=O)N4CCC(Oc5ccc([C@@H]6c7ccc(O)cc7CC[C@@H]6c6ccccc6)cc5)CC4)CC3)C2=O)C(=O)N1 (stereo partly drawn)
Request: I or II : whose Degradation rate (%) of ERα in MCF-7 cells is greater? Response format: the label of the selected entry.
Result: II
(II: 34%, I: -13%)

---

- testedTarget: ERα (Homo sapiens)
- Sequence (P03372 1-595): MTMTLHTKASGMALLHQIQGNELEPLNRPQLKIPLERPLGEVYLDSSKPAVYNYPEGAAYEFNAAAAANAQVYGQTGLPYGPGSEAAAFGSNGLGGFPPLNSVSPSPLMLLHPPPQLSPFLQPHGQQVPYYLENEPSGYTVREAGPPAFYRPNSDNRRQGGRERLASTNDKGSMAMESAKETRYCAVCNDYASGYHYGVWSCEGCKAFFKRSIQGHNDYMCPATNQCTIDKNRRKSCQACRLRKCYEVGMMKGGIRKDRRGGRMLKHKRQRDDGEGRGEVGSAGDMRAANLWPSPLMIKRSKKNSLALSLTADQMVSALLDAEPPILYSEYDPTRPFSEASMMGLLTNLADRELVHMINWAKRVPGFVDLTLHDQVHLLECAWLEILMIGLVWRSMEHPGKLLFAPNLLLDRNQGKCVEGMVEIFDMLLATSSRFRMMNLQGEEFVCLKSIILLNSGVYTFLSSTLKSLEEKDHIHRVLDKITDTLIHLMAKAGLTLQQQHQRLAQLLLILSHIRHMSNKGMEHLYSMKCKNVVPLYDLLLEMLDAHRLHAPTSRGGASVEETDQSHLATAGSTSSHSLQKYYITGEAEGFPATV
- test: Degradation of ERα in T-47D cells (immunoblotting, 4 h)
- Type: cell-based
- Set-up: host or cells: T-47D
- assaySetup: 10nM compound
- Description: T-47D cells were inoculated into 6-well plates at a density of 3×10^5 cells/well and cultured at 37°C, 5% CO2 for 24 h. After the cells were attached to the wall, 1µL of the compound solution in dimethyl sulfoxide (final concentration 0.15-1000 nM) was added and continued to be cultured in the incubator with 5% CO2 at 37°C for 4 h. […]
measuredParameter: Degradation rate (%) of ERα in T-47D cells

Request: Name the recorded Degradation rate (%) of ERα in T-47D cells for O=C1CCC(N2Cc3c(ccc4c3OCC43CCN([C@H]4CCN(C5CC6(CCN(c7ccc([C@@H]8c9ccc(O)cc9CC[C@@H]8c8ccccc8)cc7)CC6)C5)C[C@H]4F)CC3)C2=O)C(=O)N1 (stereo partly shown) .
Result: 75

Request: What measured Degradation rate (%) of ERα in T-47D cells goes with C[C@@H]1Cc2c(ccc3[nH]ncc23)C(c2c(F)cc(N3CCC4(CCC(N5CCC6(CC5)COc5c6ccc6c5CN(C5CCC(=O)NC5=O)C6=O)CC4)CC3)cc2F)N1CC(F)F (stereo partly shown) ?
Result: 69

Request: Please look up its Degradation rate (%) of ERα in T-47D cells: CN(C(=O)CN1CC2(CCc3cc4c(cc3O2)CN(C2CCC(=O)NC2=O)C4=O)C1)C1CCC2(CC1)CN(c1ccc([C@@H]3c4ccc(O)cc4CC[C@@H]3c3ccccc3)cc1)C2 (stereo partly shown)
Result: 74

Request: What value of Degradation rate (%) of ERα in T-47D cells has been reported for the following molecule? O=C1CCC(N2Cc3c(ccc4c3OCC43CCN(C4CCN(C(=O)C5CCN(c6ccc([C@@H]7c8ccc(O)cc8CC[C@@H]7c7ccccc7)cc6)CC5)[C@@H](C(=O)N5CCC(F)(F)C5)C4)CC3)C2=O)C(=O)N1 (stereo partly shown)
Result: 81

[I] O=C1CCC(N2Cc3c(ccc4c3OCC43CCN(C(=O)CN4CCN(c5ccc([C@@H]6c7ccc(O)cc7CC[C@@H]6c6ccccc6)cc5)CC4)CC3)C2=O)C(=O)N1 (stereo partly shown)
[II] O=C1CCC(N2Cc3cc4c(cc3C2=O)CCC2(CN(C(=O)CN3CCC5(CCN(c6ccc([C@@H]7c8ccc(O)cc8CC[C@@H]7c7ccccc7)cc6)CC5)C3)C2)O4)C(=O)N1 (stereo partly shown)
Request: Which shows the larger Degradation rate (%) of ERα in T-47D cells value: I or II ? Selection: enter the item's label.
Result: II

[1] C[C@@H]1Cc2c(ccc3[nH]ncc23)C(c2ccc(N3CCC4(CCC(N5CCC6(CC5)COc5c6ccc6c5CN(C5CCC(=O)NC5=O)C6=O)CC4)CC3)cn2)N1CC(F)(F)F (stereo partly shown)
[2] O=C1CCC(N2Cc3cc4c(cc3C2=O)CCC2(CN(C3CCC5(CC3)CCN(c3ccc([C@@H]6c7ccc(O)cc7CC[C@@H]6c6ccccc6)cc3)CC5)C2)O4)C(=O)N1 (stereo partly shown)
Request: // compare measured Degradation rate (%) of ERα in T-47D cells, left 1 , right 2 , return larger Kindly state the label of the option you pick.
Result: 1
(1: 84%, 2: 56%)
